# TEST_SUMMARY: AUC (0 to infinity) in Swiss albino mouse at 1 mg/kg, iv
# Assay type: ADME, organism-based
# Parameters: time infinity, dose 1 mg/kg, route intravenous
# CONDITION_INFO: plasma
VALUE_TYPE: AUC(0-inf) (ng·h/mL)
The figure you give is taken to be in ng·h/mL; do not add the unit.

Tell me the measured AUC(0-inf) of COc1ccc(-c2cc3cc(CNc4ccc(C)cc4)cc(C)c3oc2=O)cc1 , please.
316

###

# TEST_SUMMARY: Tmax in Swiss albino mouse at 10 mg/kg, ip
# Format: ADME, organism-based
# Parameters: dose 10 mg/kg, route intraperitoneal
# CONDITION_INFO: in vivo
VALUE_TYPE: Tmax (h)
The figure you give is taken to be in h; do not add the unit.

Tell me the measured Tmax of COc1ccc(-c2cc3cc(CNc4ccc(C)cc4)cc(C)c3oc2=O)cc1 , please.
2

###

# TEST_SUMMARY: Volume of distribution in Swiss albino mouse at 1 mg/kg, iv
# Assay type: ADME, organism-based
# Design: dose 1 mg/kg, route intravenous
# CONDITION_INFO: in vivo
VALUE_TYPE: Vd (L/kg)
The figure you give is taken to be in L/kg; do not add the unit.

Tell me the measured Vd of COc1ccc(-c2cc3cc(CNc4ccc(C)cc4)cc(C)c3oc2=O)cc1 , please.
18

###

# TEST_SUMMARY: AUC (0 to infinity) in Swiss albino mouse at 10 mg/kg, ip
# Assay type: ADME, organism-based
# Parameters: time infinity, dose 10 mg/kg, route intraperitoneal
# CONDITION_INFO: plasma
VALUE_TYPE: AUC(0-inf) (ng·h/mL)
The figure you give is taken to be in ng·h/mL; do not add the unit.

Tell me the measured AUC(0-inf) of COc1ccc(-c2cc3cc(CNc4ccc(C)cc4)cc(C)c3oc2=O)cc1 , please.
2330

###

# TEST_SUMMARY: Cmax in Swiss albino mouse at 1 mg/kg, iv
# Assay type: ADME, organism-based
# Parameters: dose 1 mg/kg, route intravenous
# CONDITION_INFO: in vivo
VALUE_TYPE: Cmax (ng/mL)
The figure you give is taken to be in ng/mL; do not add the unit.

Tell me the measured Cmax of COc1ccc(-c2cc3cc(CNc4ccc(C)cc4)cc(C)c3oc2=O)cc1 , please.
105

###

# TEST_SUMMARY: Oral bioavailability in rat
# Assay type: ADME, organism-based
# CONDITION_INFO: in vivo
VALUE_TYPE: bioavailability (%)
The figure you give is taken to be in %; do not add the unit.

Tell me the measured bioavailability of CNCCC(Oc1ccc(C(F)(F)F)cc1)c1ccccc1 (stereo unspecified) , please.
60

###

# TEST_SUMMARY: Clearance in Swiss albino mouse at 10 mg/kg, ip
# Type: ADME, organism-based
# Parameters: dose 10 mg/kg, route intraperitoneal
# CONDITION_INFO: in vivo
VALUE_TYPE: CL/F
Put your answer as a value accompanied by its unit after it.

Tell me the measured CL/F of COc1ccc(-c2cc3cc(CNc4ccc(C)cc4)cc(C)c3oc2=O)cc1 , please.
47.2 mL/min/kg

###

# TEST_SUMMARY: Terminal half life in Swiss albino mouse at 1 mg/kg, iv
# Format: ADME, organism-based
# Design: dose 1 mg/kg, route intravenous
# CONDITION_INFO: in vivo, read-out: beta t1/2 (converted)
VALUE_TYPE: half-life (h)
The figure you give is taken to be in h; do not add the unit.

Tell me the measured half-life of COc1ccc(-c2cc3cc(CNc4ccc(C)cc4)cc(C)c3oc2=O)cc1 , please.
3.21
